Where do the numbers come from? From patent US20260297188.

This listing pairs binders with measured Kd.
- System Under Test: T1, human NKp46 ECD (human)
- T1 chain: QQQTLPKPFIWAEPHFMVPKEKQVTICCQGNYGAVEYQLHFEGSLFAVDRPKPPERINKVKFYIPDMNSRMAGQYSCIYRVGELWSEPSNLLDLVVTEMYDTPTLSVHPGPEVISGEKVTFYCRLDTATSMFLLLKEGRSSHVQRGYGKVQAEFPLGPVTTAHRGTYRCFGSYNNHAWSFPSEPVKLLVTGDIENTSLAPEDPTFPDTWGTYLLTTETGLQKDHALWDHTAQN
- Procedure Text: SPR, 25C
Supply the numeric figure in nM, leaving out any unit text.

ch5-13 (antibody, V domains shown) VH: QSVEESGGRLVTPGTPLTLTCTVSGFSLSSYHMSWVRQAPGKGLEWIGYILANTDSYYANWAKGRFTISKTSTTVDLKITSPTTEDTATYFCARYDNHDAAYSTLWGPGTLVTVSS VL: AYDMTQTPASVEVAVGGTVTIKCQASQSISTALAWYQQKPGQPPKLLIYKASTLASGVSSRFKGSGSGTQFTLTISGVEPADAATYYCQQGYSRSNVDNVFGGGTEVVVK :: 0.194

So, ch6-1 (antibody, V domains shown) VH: QSLEESGGGLVQPEGSLTLTCTASGFSFSSSAWICWVRQAPGKGLEWIGCINTVSVNAYYASWAKGRFTISKTSSTTVTLQVTSLTAADTATHFCARNPYNSLRLWGPGTLVTVSS VL: DVVMTQTPASVSEPVGGTITINCQASENIYSSLAWYQQKPGQPPKLLMYDVSDLASGVPSRFSGSGSGTEFALTISDVQPDDAATYFCLGGYPSNNYRMAFGGGTEVVVK ? Its Kd was 0.0209

So, ch3-7 (antibody, V domains shown) VH: QSLEESGGRLVTPGTPLTLTCTVSGFSPSSYYMSWVRQAPGKGLEYIGIIFSGGSTWYASWAKGRVTISRTSTTVDLKMTSLTTEDTATYFCARGDAVGSGYWGLWGPGTLVTVSS VL: AFELTQTPSSVEAAVGGTVTINCQASQDIYIYLAWYQQKPGQPPKLLIYSASTLASGVSSRFTGSRSGTQFTLTISDLEPADAATYYCQSYDGTSNTGFGGGTEVVVR ? Its Kd was 0.0199

So, IP-46-3 (antibody, V domains shown) VH: EVQLQQSGPELVKPGASVKISCKTSGYTFTEYTMHWVKQSHGKSLEWIGGISPNIGGTSYNQKFKGKATLTVDKSSSTAYMELRSLTSEDSAVYYCARRGGSFDYWGQGTTLTVSS VL: DIVMTQSPATLSVTPGDRVSLSCRASQSISDYLHWYQQKSHESPRLLIKYASQSISGIPSRFSGSGSGSDFTLSINSVEPEDVGVYYCQNGHSFPLTFGAGTKLELK ? Its Kd was 0.361
